# study target: T1, recombinant human PAD4 (human, UniProt Q9UM07 1-663)
# T1 construct: also called rhPAD4; hPAD4
# T1 sequence (Q9UM07 whole entry): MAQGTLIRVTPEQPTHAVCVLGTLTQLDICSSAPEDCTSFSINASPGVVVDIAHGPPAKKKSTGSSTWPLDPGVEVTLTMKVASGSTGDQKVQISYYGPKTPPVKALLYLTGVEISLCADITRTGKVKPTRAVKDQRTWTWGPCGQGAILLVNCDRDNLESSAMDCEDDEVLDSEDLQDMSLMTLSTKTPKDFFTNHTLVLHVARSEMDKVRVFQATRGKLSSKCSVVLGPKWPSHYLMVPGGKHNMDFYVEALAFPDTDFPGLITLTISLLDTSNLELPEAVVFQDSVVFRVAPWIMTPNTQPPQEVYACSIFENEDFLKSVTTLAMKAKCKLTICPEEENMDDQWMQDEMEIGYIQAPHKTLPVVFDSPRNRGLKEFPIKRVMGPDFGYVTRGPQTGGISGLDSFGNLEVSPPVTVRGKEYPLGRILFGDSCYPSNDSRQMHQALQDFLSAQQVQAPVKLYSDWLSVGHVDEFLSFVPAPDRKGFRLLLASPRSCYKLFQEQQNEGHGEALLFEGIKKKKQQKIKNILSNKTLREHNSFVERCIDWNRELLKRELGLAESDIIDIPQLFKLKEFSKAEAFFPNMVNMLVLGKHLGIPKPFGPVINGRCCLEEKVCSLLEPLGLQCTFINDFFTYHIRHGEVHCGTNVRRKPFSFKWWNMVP
# experimental protocol: SPR 37 C, captured antibody, PAD4 analyte, 1 mM CaCl2
test readout: koff (s⁻¹)

1) hz20-5 (antibody, V domains shown, light constant region not tied to this antibody) VH: QVQLVQSGAEVKKPGASVKVSCKASGYTFTNYGISWVRQRPGQGLEWIGEIYPRSGNTYHNEKFKDRVTMTADTSTSTVYMELSSLRSEDTAVYYCARSMITTRYWYFDVWGKGTTVTVSS VL: DIVMTQSPDSLAVSLGERATINCRASESVDTYGNSFMHWYQQKPGQPPKLLIYLASNLESGVPDRFSGSGSGTDFTLTISSLQAEDVAVYYCQQNNEDPLTFGAGTKLELK : 0.00045
2) hz20-4 (antibody, V domains shown, light constant region not tied to this antibody) VH: QVQLVQSGAEVKKPGASVKVSCKASGYTFTNYGISWVRQAPGQGLEWMGEIYPRSGNTYHNEKFKDRVTMTADTSTSTVYMELSSLRSEDTAVYYCARSMITTRYWYFDVWGKGTTVTVSS VL: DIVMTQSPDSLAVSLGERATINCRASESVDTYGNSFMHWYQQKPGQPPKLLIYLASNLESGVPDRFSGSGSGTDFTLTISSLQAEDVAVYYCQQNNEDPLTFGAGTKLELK : 0.00046
3) hz13-12 D31E (antibody, human IgG1, kappa, V domains shown, IgG1.3f; also called hz3-12 D31E) VH: EVQLVQSGAEVKKPGATVKISCTSSDFNIKEHFIHWVQQAPGKGLEWMGRIDPEDDETKYAPKFQDRVTITADTSTDTAYMELSSLRSEDTAVYYCAGYGNYEGAMDYWGQGTTVTVSS VL: DVVMTQSPLSLPVTLGQPASISCRASENVNNYGIGFMNWFQQRPGQSPRLLIYAASRRGSGVPDRFSGSGSGTDFTLKISRVEEEDVGVYYCQQSKEVPYTFGGGTKVEIKR : 0.0003

Sourced from patent US20240132622A1
